- systemUnderTest: JAK1 JH1 catalytic (human)
- measurementProtocol: radiometric filter-binding kinase assay, Kinase HotSpot
- conditionNotes: compound 0.5 µM; ATP 10 µM
Parameter: residual activity. Scope: all listed entries.

mol: O=C1NC(=O)C(c2cn(CCCO)c3ncccc23)=C1c1cnccn1
scaleUnit: %
residual activity: 117
//
mol: Nc1nccc(-c2c(-c3ccc(F)cc3)ncn2C2CCNCC2)n1
scaleUnit: %
residual activity: 104
//
mol: CC(C)[C@H](CO)Nc1nc(Nc2cc(N)cc(Cl)c2)c2ncn(C(C)C)c2n1
scaleUnit: %
residual activity: 101
//
mol: Oc1ccc(Nc2nc(-c3ccc(Cl)cc3)cs2)cc1
scaleUnit: %
residual activity: 97.1
//
mol: Cn1sc(=O)n(Cc2ccccc2)c1=O
scaleUnit: %
residual activity: 103
//
mol: Cn1cnc2cc3c(Nc4cccc(Br)c4)ncnc3cc21
scaleUnit: %
residual activity: 96.4
//
mol: Nc1nnc2[nH]c3ccccc3nc1-2
scaleUnit: %
residual activity: 99.8
//
mol: COc1cc2ncnc(N3CCN(C(=O)Nc4ccc(Oc5ccccc5)cc4)CC3)c2cc1OC
scaleUnit: %
residual activity: 96.5
//
mol: COc1ccc(CNC(=O)Nc2ncc([N+](=O)[O-])s2)cc1
scaleUnit: %
residual activity: 94.2
//
mol: CN(C)C[C@H]1CCn2c(c(C3=C(c4cn(C)c5ccccc45)C(=O)NC3=O)c3ccccc32)C1
scaleUnit: %
residual activity: 108

Taken from the kinase profiling compilation of Christmann-Franck et al. (2016).
